Each recorded value in this set is attributed to paper PMC9482650.

# experimental.system: T1, LIN7C, Q9NUP9
# T1 sequence (Q9NUP9 88-185, limits assumed, looked up): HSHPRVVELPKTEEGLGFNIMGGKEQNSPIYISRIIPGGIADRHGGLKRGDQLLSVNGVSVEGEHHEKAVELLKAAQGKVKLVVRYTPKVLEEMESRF
# method.notes: holdup assay
# Parameters: key: below the threshold = too weak to quantify, mostly under pKd 3.1 to 4
# experimental.conditions: plain residues with an end cap or a label only (N-terminal biotin on a linker: ado-ado)
endpoint: pKd

// field: pKd; key: GEDRSPPTAL [MKNK1, Q9BUB5] ; value = 4.02

// field: pKd; key: DGVNEKVSCV [HTR2A, P28223] ; value = 3.78

// field: pKd; key: VKRNSKETVV [MARCHF3, Q86UD3] ; value = 3.95
